Collected set of IC50 measured with PDE9 (Homo sapiens (Human), UniProt O76083) across studies.
Sequence (O76083 whole entry): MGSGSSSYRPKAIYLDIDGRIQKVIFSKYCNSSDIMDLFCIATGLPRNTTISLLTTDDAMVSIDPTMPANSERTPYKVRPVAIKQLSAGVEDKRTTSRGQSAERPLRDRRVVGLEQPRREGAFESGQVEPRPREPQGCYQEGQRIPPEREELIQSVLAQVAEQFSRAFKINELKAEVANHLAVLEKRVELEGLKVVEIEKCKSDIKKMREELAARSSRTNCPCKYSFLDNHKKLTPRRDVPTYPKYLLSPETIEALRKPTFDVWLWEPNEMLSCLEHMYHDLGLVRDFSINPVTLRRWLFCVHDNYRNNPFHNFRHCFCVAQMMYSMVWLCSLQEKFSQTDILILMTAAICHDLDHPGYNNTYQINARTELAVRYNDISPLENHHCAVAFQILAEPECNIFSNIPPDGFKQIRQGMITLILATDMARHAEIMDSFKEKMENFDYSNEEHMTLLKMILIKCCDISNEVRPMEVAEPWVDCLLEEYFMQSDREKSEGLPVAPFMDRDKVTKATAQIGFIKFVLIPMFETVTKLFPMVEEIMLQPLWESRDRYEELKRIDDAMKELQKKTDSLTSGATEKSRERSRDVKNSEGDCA
Numbers only, in nM.

Consider the following illustrative entries.
- MOLECULE: "Cc1cc2[nH]c(=O)c3cnn(C4CCOCC4)c3c2cc1C(=O)N1CCN(CC(F)(F)F)CC1"
  U: "nM"
  IC50: 20
- MOLECULE: "CCOCCCN1CCN(C(=O)c2cc3c(cc2C)[nH]c(=O)c2cnn(C4CCOCC4)c23)CC1"
  U: "nM"
  IC50: 8.4
- MOLECULE: "CCOCC1CCN(C(=O)c2cc3c(cc2C)[nH]c(=O)c2cnn(C4CCOCC4)c23)C1 (stereo not shown)"
  U: "nM"
  IC50: 6.1

Hi! Can you tell me IC50 for each of these molecules?
1. Cc1cc2[nH]c(=O)c3cnn(C4CCOCC4)c3c2cc1C(=O)N1CCN(CCCOC(F)(F)F)CC1
2. Cc1cc2[nH]c(=O)c3cnn(C4CCOCC4)c3c2cc1C(=O)N1CCC(OC[C@H](C)F)CC1
3. CCSc1nnc(NC(=O)CSc2nc3c(cnn3C3CCCCC3)c(=O)[nH]2)s1
4. CCSc1nnc(NC(=O)CSc2nc3c(cnn3C3CCC(F)(F)CC3)c(=O)[nH]2)s1
5. Cc1cc2[nH]c(=O)c3cnn(C4CCOCC4)c3c2cc1C(=O)N1CCN(CCC(F)(F)F)CC1.Cl
6. COCCCN1CCN(C(=O)c2cc3c(cc2C)[nH]c(=O)c2cnn(CC4CCC4)c23)C[C@@H]1C
7. COc1ccc2nc(CSc3nc4c(cnn4C4CCOCC4)c(=O)[nH]3)oc2c1
8. O=c1[nH]c(SCc2nc3ccccc3o2)nc2c1cnn2C1CCOCC1

Reply:
[6.3, 14, 1, 0.6, 5.2, 2, 3, 5]
